Parameter: Ki. Scope: all listed entries.
Target: UniProt:P21452
Sequence (P21452 whole entry): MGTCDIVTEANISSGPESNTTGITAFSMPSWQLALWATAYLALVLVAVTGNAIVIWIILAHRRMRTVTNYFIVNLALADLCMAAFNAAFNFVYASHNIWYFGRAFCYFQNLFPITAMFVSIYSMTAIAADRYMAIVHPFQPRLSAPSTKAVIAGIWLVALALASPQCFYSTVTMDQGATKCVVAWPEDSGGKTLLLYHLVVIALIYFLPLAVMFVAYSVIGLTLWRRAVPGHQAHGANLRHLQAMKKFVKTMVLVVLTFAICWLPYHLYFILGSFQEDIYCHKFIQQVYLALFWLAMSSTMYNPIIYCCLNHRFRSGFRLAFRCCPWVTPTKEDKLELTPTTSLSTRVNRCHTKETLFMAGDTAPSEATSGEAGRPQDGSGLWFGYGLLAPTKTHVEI
Starred links: 1 amine or outer side, 2 acyl side, 3 side chain; linkers in the order of their positions; H or OH if unused. Positions of bridges follow the written chain, without caps; N, C: chain ends. Non-standard residues stand in square brackets, D forms with d. Residues, ends and D or L forms follow the SMILES beside them. *: point of attachment. X2 = CN(C(=Cc1ccc(O)cc1)C(=O)[*:2])[*:1]; X1 = CCCCCc1ccccc1CCC(=O)*
TEST READOUT: Ki (µM)

>>> result("CCCCCc1ccccc1CCC(=O)NC1C(=O)N(C)C(=Cc2ccc(O)cc2)C(=O)NC(CC(C)C)C(=O)NC(Cc2ccccc2)C(=O)NC(C(C)O)C(=O)NC(CC(N)=O)C(=O)NC(CO)C(=O)OC1C (stereo not drawn) [CAS_6437864] (X1-T[X2]LFTNS; ester 1-C; configuration not given here)")
0.434
>>> result("COc1cc(C(=O)N2CC[C@](CCN3CCC(C(N)=O)(c4ccccc4)CC3)(c3ccc(Cl)c(Cl)c3)C2)cc(OC)c1OC")
0.021

The origin of these recorded values is BindingDB's records for PubMed 8627566.
